Can you tell me kon for the items I'm about to list?
# subject-of-test: T1, recombinant human IGSF8 extracellular domain tagged by a human Fc region (IGSF8-hFc) (human, UniProt Q969P0 28-579, biotin label in Examples 17, 18 and 28 (site not given))
# T1 construct: also called IGSF8-Fc fusion protein; IGSF8-hFc-biotin; not shown: human Fc region
# T1 sequence: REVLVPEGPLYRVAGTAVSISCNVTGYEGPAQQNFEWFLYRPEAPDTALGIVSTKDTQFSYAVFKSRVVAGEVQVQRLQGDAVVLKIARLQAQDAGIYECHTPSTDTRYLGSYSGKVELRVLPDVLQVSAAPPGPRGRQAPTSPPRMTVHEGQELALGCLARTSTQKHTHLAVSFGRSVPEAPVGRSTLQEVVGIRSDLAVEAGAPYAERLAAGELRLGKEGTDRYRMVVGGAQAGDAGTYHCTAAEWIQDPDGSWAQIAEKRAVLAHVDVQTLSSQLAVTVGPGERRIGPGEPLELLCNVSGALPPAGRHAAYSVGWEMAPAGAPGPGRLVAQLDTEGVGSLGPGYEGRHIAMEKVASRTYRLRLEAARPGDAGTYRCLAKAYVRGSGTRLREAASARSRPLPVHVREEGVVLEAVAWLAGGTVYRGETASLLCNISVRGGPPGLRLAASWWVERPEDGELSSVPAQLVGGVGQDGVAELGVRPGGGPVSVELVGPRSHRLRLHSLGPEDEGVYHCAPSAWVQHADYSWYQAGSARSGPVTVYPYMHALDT
# assay-remarks: SPR, Ab captured
# Protocol: The binding affinities of the L1 and L2 antibodies to IGSF8 recombinant protein were determined by surface plasmon resonance (SPR). Briefly, anti-human Fab antibody was imobilized on acarboxyl-derivatized SPR chip surface, and the antibodies were captured on the resulting surface at 5 μg/ml for 30 seconds.
Numbers only, in M⁻¹ s⁻¹.

binder | reading-unit | obs-value
L1-10 (antibody, V domains shown) VH: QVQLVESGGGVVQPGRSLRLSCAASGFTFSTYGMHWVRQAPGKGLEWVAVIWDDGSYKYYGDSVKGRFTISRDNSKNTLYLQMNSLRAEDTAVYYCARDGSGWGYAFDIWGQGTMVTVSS VL: DIQLTQSPSSLSASVGDRVTITCQASQDISEYLNWYQHKPGKAPNPLVFTSANLETGVPPRFSATGSGTDFSLTITSLQPEDFATYYCQQYDSFPYTFGQGTRLDIK | M⁻¹ s⁻¹ | 301000

For every item below, please supply its kon.
1. L1-16 (antibody, V domains shown) VH: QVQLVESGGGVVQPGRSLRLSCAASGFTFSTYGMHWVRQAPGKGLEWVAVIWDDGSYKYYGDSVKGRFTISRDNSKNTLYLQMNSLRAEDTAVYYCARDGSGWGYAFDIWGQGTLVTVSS VL: DIQMTQSPSSLSASVGDRVTITCQASQDIGPWLNWYQQKPGKAPKLLIYGSPNLETGVPSRFSGSGSGTDFTFTISSLQPEDIATYYCQQYDSFPYTFGQGTKVEIK
2. L1-02 (antibody, V domains shown) VH: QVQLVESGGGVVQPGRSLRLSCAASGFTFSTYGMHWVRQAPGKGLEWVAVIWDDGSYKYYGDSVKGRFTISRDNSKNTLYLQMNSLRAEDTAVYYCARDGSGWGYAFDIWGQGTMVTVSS VL: DIQLTQSPSSLSASVGDRVTITCQASQDISKPLNWYQHKPGKAPNPLVFDAANLETGVPPRFSATGSGTDFSLTITSLQPEDFATYYCQQYDSFPYTFGQGTRLDIK

1. 333000
2. 300000
